Reference for the values: ChEMBL document CHEMBL1153180

- tested.system: Beta-secretase 1 (Cricetulus griseus, UniProt G3IAK4)
- Sequence (G3IAK4 whole entry): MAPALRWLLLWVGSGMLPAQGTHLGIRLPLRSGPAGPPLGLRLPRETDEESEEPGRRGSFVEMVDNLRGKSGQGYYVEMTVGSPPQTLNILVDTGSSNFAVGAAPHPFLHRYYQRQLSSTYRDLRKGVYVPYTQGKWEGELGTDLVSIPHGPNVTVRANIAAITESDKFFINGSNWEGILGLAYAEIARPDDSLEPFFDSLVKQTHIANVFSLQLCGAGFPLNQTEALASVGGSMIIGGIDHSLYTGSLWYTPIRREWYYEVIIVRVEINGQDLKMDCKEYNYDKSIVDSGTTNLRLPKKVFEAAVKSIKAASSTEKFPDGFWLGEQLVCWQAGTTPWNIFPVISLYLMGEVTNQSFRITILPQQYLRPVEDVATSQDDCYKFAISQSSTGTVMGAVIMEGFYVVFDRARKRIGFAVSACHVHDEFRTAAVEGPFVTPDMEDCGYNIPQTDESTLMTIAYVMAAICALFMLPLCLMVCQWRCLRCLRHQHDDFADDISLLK
- assay.procedure: Inhibition of human recombinant APP expressed in CHO-K1 cells assessed as reduction of amyloid beta level by ELISA
pEC50: −log10 of the molar value.
Everything with pEC50 lower than 5 is false (0); everything else, including exactly 5, is true (1).

Test whether the compound `CN1C(=O)C(c2ccccc2)(c2ccccc2)N=C1N` records pEC50 of 5 or higher.
true (1)

Tell me whether pEC50 is at least 5 here: Cc1ccoc1C(=O)Nc1cccc(C2(C3CCCCC3)N=C(N)N(C)C2=O)c1 (stereo not given)
true (1)

Hi team, for `CN1C(=O)C(C2CCCCC2)(C2CCCCC2)N=C1N` , is the recorded pEC50 at or above 5?
true (1)

Hi, just wondering whether `NC1=NC(c2ccccc2)(c2ccccc2)C2=NCCCN12` shows pEC50 of 5 or higher.
false (0)

Could you please find out whether CN1C(=O)C(c2ccccc2)(C2CCCCC2)N=C1N (stereo not given) has pEC50 that meets 5 or exceeds it?
true (1)
